- Test Target: CX3CR1 (Homo sapiens)
- Sequence (P49238 whole entry): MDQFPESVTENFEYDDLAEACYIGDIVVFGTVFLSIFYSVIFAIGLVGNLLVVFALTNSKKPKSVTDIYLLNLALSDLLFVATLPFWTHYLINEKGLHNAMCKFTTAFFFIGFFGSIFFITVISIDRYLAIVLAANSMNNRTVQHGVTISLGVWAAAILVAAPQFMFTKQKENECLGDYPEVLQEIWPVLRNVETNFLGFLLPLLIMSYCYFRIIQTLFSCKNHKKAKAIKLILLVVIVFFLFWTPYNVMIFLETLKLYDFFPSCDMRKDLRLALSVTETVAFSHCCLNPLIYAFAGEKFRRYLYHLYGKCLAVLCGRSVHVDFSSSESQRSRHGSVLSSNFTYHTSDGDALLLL
- Assay Method Text: Dynamic mass redistribution (DMR), CHO-hCX3CR1 cells
- Format: cell-based
- Set-up: host or cells: CHO-K1
- Experimental Setup: CHO-hCX3CR1 cells, compound alone, no plateau, n=3; read-out: Potency, DMR agonism
Value Type: EC50

Query: What value of EC50 has been reported for the following compound? CC(C)C[C@H](CO)Nc1nc(S[C@@H](C)c2ccccc2)nc2nc(N)sc12
Result: > 5 µM

----------
- Test Target: CX3CR1 (human whole blood leucocytes) (Homo sapiens)
- Construct: hWB with heparin as anti-coagulant was collected from healthy donors
- Assay Method Text: Cellix flow adhesion of hWB leucocytes to full-length CX3CL1
- Experimental Setup: flow 2.25 dyn·cm^−2, 60 min pre-incubation, n=2, read-out: IC50, prevention of capture (adhesion) of human blood leucocytes to CX3CL1
Value Type: IC50 (nM)
Write the answer as a number in nM, unit excluded.

Query: Checklist item: IC50 tested on CX3CR1 (human whole blood leucocytes) (Homo sapiens), entry CC(C)C[C@H](CO)Nc1nc(S[C@@H](C)c2ccccc2)nc2nc(N)sc12 , value?
Result: 330
